- EXPERIMENTAL DETAILS: Microsomal stability, mouse liver microsomes
- Type: in vitro ADME
- CONDITIONS: CD-1, mouse, microsomes, pH 7.4
- Experimental: Assays were performed by WuXi AppTec (Shanghai) Co., Ltd. The test compounds (Table 4) (at 1 μM) were incubated at 37 °C with liver microsomes from human or CD-1 mice in the presence of a NADPH regenerating system and phosphate buffer (100 mM, pH 7.4) at 0.5 mg/mL microsomal protein (the positive controls were testosterone, propafenone, and diclofenac). […]
# log10(CLint scaled at 1 μM) listing for each entry below
Field: value | Transform: log10 | Quantity: CLint scaled at 1 μM | Unit: mL/min/kg

Please review the entries below; each comes with its answer.
>>> experimental_value("Fc1ccc(-c2cnn3c(NCc4ccccn4)cc(-c4cccs4)nc23)cc1")
2.21
>>> experimental_value("Fc1ccc(-c2cnn3c(NCc4ccccn4)cc(-c4ccoc4)nc23)cc1")
2.76
>>> experimental_value("Fc1ccc(-c2cnn3c(NCc4ccccn4)cc(-c4cccnc4)nc23)cc1")
2.65
>>> experimental_value("Fc1ccc(-c2cnn3c(NCc4ccccn4)cc(-c4ccccc4)nc23)cc1")
2.00
>>> experimental_value("Fc1ccc(-c2cnn3c(NCc4ccccn4)cc(-c4ccsc4)nc23)cc1")
2.47
>>> experimental_value("Fc1ccc(-c2cnn3c(NCc4cc(N5CCCCC5)ccn4)cc(-c4ccccc4)nc23)cc1")
1.96

Q: So what does the record say about log10(CLint scaled at 1 μM) for `Fc1ccc(-c2cnn3c(NCc4ccccn4)cc(C4=CCCCC4)nc23)cc1` ?
Ans: 2.08

Q: log10(CLint scaled at 1 μM) for `Fc1ccc(-c2cnn3c(NCc4ccc(F)cn4)cc(-c4ccccc4)nc23)cc1` ?
Ans: 1.70

Q: Look up log10(CLint scaled at 1 μM): `Fc1ccc(-c2cnn3c(NCc4ccccn4)cc(C4=CCCC4)nc23)cc1`
Ans: 2.15

---

MEASURED PARAMETER: melting point

>>> experimental_value("Cc1cccc(-c2cnn3c(NCc4ccccn4)cc(-c4ccccc4)nc23)c1")
"172 to 174 °C"

Q: Request the reported melting point associated with `CN(C)c1cccc(CNc2cc(-c3ccccc3)nc3c(-c4ccc(F)cc4)cnn23)n1`
Ans: 151 to 153 °C

Q: Fill in the blank: the reported melting point of `Fc1ccc(-c2cnn3c(NCc4cc(N5CCCCC5)ccn4)cc(-c4ccccc4)nc23)cc1` is ____.
Ans: 189 to 191 °C

Q: What value of melting point has been recorded for this entry: `COc1ccnc(CNc2cc(-c3ccccc3)nc3c(-c4ccc(F)cc4)cnn23)c1`
Ans: 205 to 208 °C

Q: Can you share its melting point? I mean this compound: `Fc1ccc(-c2cnn3c(NCc4ccccn4)cc(-c4ccccc4)nc23)cc1`
Ans: 191 to 193 °C

Q: Record request: melting point value, item `Fc1ccc(-c2cnn3c(NCc4ncccc4Br)cc(-c4ccccc4)nc23)cc1`
Ans: 189 to 191 °C

Q: Quick check: melting point of `COc1ccc(-c2cnn3c(NCc4ccccn4)cc(-c4ccccc4)nc23)cc1` ?
Ans: 187 to 189 °C

Q: Which melting point reading was recorded for the compound `Fc1ccc(-c2cnn3c(NCc4cc(N5CCCC5)ccn4)cc(-c4ccccc4)nc23)cc1` ?
Ans: 221 to 223 °C

---

- EXPERIMENTAL DETAILS: Microsomal stability, mouse liver microsomes
- Assay type: in vitro ADME
- CONDITIONS: CD-1, pH 7.4; mouse liver microsomes; read-out: MLM Clint(mic)
// microsomal CLint at 1 μM lookup, one value per entry
Express it in µL/min/mg; write the number only.

Q: Field request: microsomal CLint at 1 μM | item: `Fc1ccc(-c2cnn3c(NCc4ccccn4)cc(-c4cccs4)nc23)cc1`
Ans: 41

Q: Reported microsomal CLint at 1 μM, compound `Fc1ccc(-c2cnn3c(NCc4ccccn4)cc(-c4ccccc4)nc23)cc1` : ____
Ans: 25

Q: Requested read-out: microsomal CLint at 1 μM. Entry: `Fc1ccc(-c2cnn3c(NCc4ccccn4)cc(-c4ccccc4F)nc23)cc1`
Ans: 29

Q: Recorded microsomal CLint at 1 μM for `Fc1ccc(-c2cnn3c(NCc4cc(N5CCCCC5)ccn4)cc(-c4ccccc4)nc23)cc1` , please?
Ans: 23

---

- EXPERIMENTAL DETAILS: Microsomal stability, human liver microsomes
- Type: in vitro ADME
- CONDITIONS: human, microsomes, pH 7.4
Item-by-item account of CLint scaled at 1 μM

Examples from the recorded data:
>>> experimental_value("CC(C)(C)c1ccc(-c2cc(NCc3ccccn3)n3ncc(-c4ccc(F)cc4)c3n2)cc1")
"< 8.6 mL/min/kg"
>>> experimental_value("Fc1ccc(-c2cnn3c(NCc4ccc(F)cn4)cc(-c4ccccc4)nc23)cc1")
"11 mL/min/kg"
>>> experimental_value("COc1ccc(-c2cc(NCc3ccccn3)n3ncc(-c4ccc(F)cc4)c3n2)cc1")
"16 mL/min/kg"

Q: Need CLint scaled at 1 μM of `COc1ccc(CNc2cc(-c3ccccc3)nc3c(-c4ccc(F)cc4)cnn23)nc1` , thanks.
Ans: < 8.6 mL/min/kg

Q: Reported CLint scaled at 1 μM for `Fc1ccc(-c2cnn3c(NCc4ccccn4)cc(-c4cccs4)nc23)cc1` : what is it?
Ans: 75 mL/min/kg

Q: // CLint scaled at 1 μM lookup, key: `CN(C)CC#Cc1ccc(CNc2cc(-c3ccccc3)nc3c(-c4ccc(F)cc4)cnn23)nc1`
Ans: < 8.6 mL/min/kg

---

- Tested on: Mycobacterium tuberculosis (strain H37Rv)
- EXPERIMENTAL DETAILS: MABA minimum inhibitory concentration assay (aerobic/replicating)
- Format: cell-based
- CONDITIONS: Mycobacterium tuberculosis; M.tb H37Rv, aerobic/replicating; 90% inhibition of growth
MEASURED PARAMETER: MIC90 (µg/mL)
Please give a number only; it is taken to be in µg/mL.

>>> experimental_value("CN(C)CCN(C)c1ccnc(CNc2cc(-c3ccccc3)nc3c(-c4ccc(F)cc4)cnn23)c1")
1.7
>>> experimental_value("Fc1ccc(-c2cnn3c(NCc4ccccn4)cc(-c4ccco4)nc23)cc1")
0.96
>>> experimental_value("COc1cccc(-c2cc(NCc3ccccn3)n3ncc(-c4ccc(F)cc4)c3n2)c1")
3.9
>>> experimental_value("CN1CCN(c2ccnc(CNc3cc(-c4ccccc4)nc4c(-c5ccc(F)cc5)cnn34)c2)CC1")
0.09

Q: Form field: MIC90 recorded for `Cc1ccnc(CNc2cc(-c3ccccc3)nc3c(-c4ccc(F)cc4)cnn23)c1` with Mycobacterium tuberculosis (strain H37Rv) (enter value)
Ans: 1.8

Q: What is its MIC90 for Mycobacterium tuberculosis (strain H37Rv)? Entry: `Fc1ccc(-c2cnn3c(NCc4ccccn4)cc(-c4ccsc4)nc23)cc1`
Ans: 1.4

---

- EXPERIMENTAL DETAILS: Microsomal stability, mouse liver microsomes
- Assay type: in vitro ADME
- CONDITIONS: CD-1, mouse, microsomes, pH 7.4
MEASURED PARAMETER: CLint scaled at 1 μM

>>> experimental_value("COc1ccnc(CNc2cc(-c3ccccc3)nc3c(-c4ccc(F)cc4)cnn23)c1")
"< 38 mL/min/kg"
>>> experimental_value("Fc1ccc(-c2cnn3c(NCc4ccccn4)cc(C4CC4)nc23)cc1")
"424 mL/min/kg"
>>> experimental_value("Fc1ccc(-c2cnn3c(NCc4ccc(Cl)cn4)cc(-c4ccccc4)nc23)cc1")
"< 38 mL/min/kg"
>>> experimental_value("CN(C)CC#Cc1ccc(CNc2cc(-c3ccccc3)nc3c(-c4ccc(F)cc4)cnn23)nc1")
"121 mL/min/kg"
>>> experimental_value("Fc1ccc(-c2cnn3c(NCc4ccccn4)cc(-c4ccccc4F)nc23)cc1")
"113 mL/min/kg"

Q: Fill in the blank: the reported CLint scaled at 1 μM of `COc1ccc(-c2cc(NCc3ccccn3)n3ncc(-c4ccc(F)cc4)c3n2)cc1` is ____.
Ans: 88 mL/min/kg

Q: # lookup: CLint scaled at 1 μM of `Cc1cccc(-c2cc(NCc3ccccn3)n3ncc(-c4ccc(F)cc4)c3n2)c1`
Ans: < 38 mL/min/kg

Q: // lookup CLint scaled at 1 μM for `COc1ccc(-c2cnn3c(NCc4ccccn4)cc(-c4ccccc4)nc23)cc1`
Ans: 92 mL/min/kg

---

- System: Mycobacterium tuberculosis (strain H37Rv)
- EXPERIMENTAL DETAILS: MABA minimum inhibitory concentration assay (aerobic/replicating)
- Format: cell-based
- CONDITIONS: Mycobacterium tuberculosis; M.tb H37Rv, aerobic/replicating; 90% inhibition of growth
MEASURED PARAMETER: MIC90 (µg/mL)
Respond with the bare value in µg/mL.

>>> experimental_value("Fc1ccc(-c2cnn3c(NCc4ccccn4)cc(C4=CCCCC4)nc23)cc1")
0.62
>>> experimental_value("Fc1ccc(-c2cnn3c(NCc4cc(N5CCCCC5)ccn4)cc(-c4ccccc4)nc23)cc1")
0.96

Q: Value lookup for MIC90; key = `Fc1ccc(-c2cnn3c(NCc4cccc(N5CCCCC5)n4)cc(-c4ccccc4)nc23)cc1`
Ans: 0.25
